- System: Wheat
- assay_text: Postemergence Herbicidal Activity, Wheat
- Type: in vivo
- condition_label: Triticum aestivum, post-emergence, 0.5 kg/ha
- From the text: The herbicidal data in the following Tables 3 and 4 was obtained in the manner described in PCT published application no. […] In those tables, the test compounds are identified by numbers which correspond to those in Table 1, "kg/ha" is kilograms per hectare, and "% C" is percent control.
metric: plant injury at 500 g/ha (%)
Just the number please, in %, no unit attached.

smiles: CCCS(=O)(=O)Nc1cc(-n2nnn(CCCF)c2=O)c(F)cc1Cl
tested_system: Wheat
plant injury at 500 g/ha, %: 60
//
smiles: CS(=O)(=O)N(c1cc(-n2nnn(CCCF)c2=O)c(F)cc1F)S(C)(=O)=O
tested_system: Wheat
plant injury at 500 g/ha, %: 30
//
smiles: CCCS(=O)(=O)N(c1cc(-n2nnn(CCCF)c2=O)c(F)cc1Cl)S(=O)(=O)CCC
tested_system: Wheat
plant injury at 500 g/ha, %: 90
//
smiles: CCCS(=O)(=O)N(c1cc(-n2nnn(CCCF)c2=O)c(F)cc1F)S(=O)(=O)CCC
tested_system: Wheat
plant injury at 500 g/ha, %: 20

Enquiry: Lab request: please report plant injury at 500 g/ha under test system Wheat for CCS(=O)(=O)N(CC#N)c1cc(-n2nnn(CCCF)c2=O)c(F)cc1Cl
Return: 60

Enquiry: Would you mind doing CCS(=O)(=O)N(COC)c1cc(-n2nnn(CCCF)c2=O)c(F)cc1Cl as well?
Return: 100

Enquiry: // query: CCS(=O)(=O)N(c1cc(-n2nnn(CCCF)c2=O)c(F)cc1F)S(=O)(=O)CC
Return: 50

Enquiry: And CCS(=O)(=O)N(c1cc(-n2nnn(CCCF)c2=O)c(F)cc1Cl)S(C)(=O)=O ?
Return: 70

Enquiry: Note, next up: CCS(=O)(=O)N(C)c1cc(-n2nnn(CCCF)c2=O)c(F)cc1Cl
Return: 80

###

- Tested on: Wheat
- assay_text: Postemergence Herbicidal Activity, Wheat
- Assay type: in vivo
- condition_label: Triticum aestivum, post-emergence, 1.0 kg/ha
This listing pairs molecules with measured plant injury at 1000 g/ha.
Quick note: give the figure in %, leave out the unit.

smiles: CCS(=O)(=O)Nc1cc(-n2nnn(CCCF)c2=O)c(Cl)cc1F
units_text: %
plant injury at 1000 g/ha: 30

smiles: CCN(c1cc(-n2nnn(CCCF)c2=O)c(F)cc1Cl)S(=O)(=O)CC
units_text: %
plant injury at 1000 g/ha: 100

smiles: CCOC(=O)CN(c1cc(-n2nnn(CCCF)c2=O)c(F)cc1Cl)S(=O)(=O)CC
units_text: %
plant injury at 1000 g/ha: 40

smiles: CCCS(=O)(=O)N(c1cc(-n2nnn(CCCF)c2=O)c(F)cc1Br)S(=O)(=O)CCC
units_text: %
plant injury at 1000 g/ha: 80

smiles: CS(=O)(=O)Nc1cc(-n2nnn(CCCF)c2=O)c(Cl)cc1F
units_text: %
plant injury at 1000 g/ha: 50

smiles: CS(=O)(=O)N(c1cc(-n2nnn(CCCF)c2=O)c(F)cc1Cl)S(C)(=O)=O
units_text: %
plant injury at 1000 g/ha: 80

smiles: CCCN(c1cc(-n2nnn(CCCF)c2=O)c(F)cc1Cl)S(=O)(=O)CC
units_text: %
plant injury at 1000 g/ha: 100

smiles: CCS(=O)(=O)N(c1cc(-n2nnn(CCCF)c2=O)c(F)cc1Br)S(=O)(=O)CC
units_text: %
plant injury at 1000 g/ha: 90

Now for a further molecule.
Enquiry: Query: plant injury at 1000 g/ha; subject: CS(=O)(=O)N(c1cc(-n2nnn(CCCF)c2=O)c(F)cc1Br)S(C)(=O)=O
Return: 60
